test: soluble on expression in E. coli; label from the status in PepcDB or PDB records

SEQ_TEXT	soluble on expression in E. coli
MSHSLRYFVTAVSRPGFGEPRYMEVGYVDNTEFVRFDSDAENPRYEPRARWIEQEGPEYWERETRRAKGNEQSFRVDLRTALRYYNQSAGGSHTLQWMAGCDVESDGRLLRGYWQFAYDGCDYIALNEDLKTWTAADMAAQITRRKWEQAGAAERDRAYLEGECVEWLRRYLKNGNATLLRTDPPKAHVTHHRRPEGDVTLRCWALGFYPADITLTWQLNGEELTQEMELVETRPAGDGTFQKWASVVVPLGKEQKYTCHVEHEGLPEPLTLRWGKE	soluble
GPGSMPSKEASSRNLPISGRDTNGKTYRSTDEMWKAELTGDLYDPEKGWYGKALEYWRTVPATVSGVLGGMDHVHDVDIEGSRNFIASLPGHGTSRALDCGAGIGRITKNLLTKLYATTDLLEPVKHMLEEAKRELAGMPVGKFILASMETATLPPNTYDLIVIQWTAIYLTDADFVKFFKHCQQALTPNGYIFFKENCSTGDRFLVDKEDSSLTRSDIHYKRLFNESGVRVVKEAFQEEWPTDLFPLKMYALK	soluble

---

test: soluble on expression in E. coli; label from the status in PepcDB or PDB records
READOUT_NAME: soluble on expression in E. coli

SEQ_TEXT	OBSERVED_MEASUREMENT
MAEQYSEINTDTLERVTEIFKALGDYNRIRIMELLSVSEASVGHISHQLNLSQSNVSHQLKLLKSVHLVKAKRQGQSMIYSLDDIHVATMLKQAIHHANHPKESGL	soluble
MSLDPQYDGVWRQSLALLAQDTAGVIPSSTAVKWLTDQQCANGAFAPFRADPAKACDAKTPVDTNNTAAAVQALWAVGGHGDVIEEALGWLKSVQNEDGGWGYVPGTPSDANSTSVVIGALTATETDPAKVVKDGKSPYDALLTFALPCAKDKGAGAFAFQPDKDGKLLPNADATAAGVLGTLGEGLVAEAGKKTGAASCADADQPDRERAAANAAAYLTDTLAKDGHLVSALGGSADQPDYGNTADAVVALAAQGGADKAAEPLAWLKKNAAKWAGEGHHHHHH	soluble

---

experiment: soluble on expression in E. coli; label from the status in PepcDB or PDB records

SEQ_TEXT	soluble on expression in E. coli
MKRSHLENALNYALENSETAYNEMFLECDKQFILESWLNDFDLTKDYNETMHLVFSIKDKPDEETMQGLLHSTWESLKIRLPEYKFALVPHAHQDHAHIHCFINKTNQLTRRRLRFKGHEDCKEFFNELRSEFAYRLNDHLLSEEYLYVNEPKLKELDNIKQQLQDLEKEEKALEQIKSPQDEWDLNKALQSEYLQELKYKNKAKALDIQNNHSTPLKQKISEFKIALFNHKDTSDDEKEQLDIDRIDKRKPVSEHLKNTNKHELYELLGFYQKELDKKQNHSAFKNFAILNGLDRDFERETNGYSVLKKKEMLLNKLEHLDKRLLDKNSHLLLAQ	not soluble
MVGNMNREALFKTLTTGYLHFWSLSRKKLWLKGETSGNFQIIEEFKVDCDADAVLFKVTSLGPICHTGNYTCFYRSYDELVNSKS	soluble
MAHHHHHHMSDQINVKHKIGDTCRKLYSYFKTVNNTSTFIQNGTLTPSEFVDSGDFLVYKFKTWEWQEADKDRVVPYLPENKQFLITKNVPCKQRIKDLNNIVHDLIMIGYSQVMKKITIPQIYMNIYLIVNTQLMTKMYKMYKITSCYSKNMLHDSNSFKNNFIIIIKNFTCLNIITYDKYYQTPRIWLFGYNENGDPLKSEEIFEDILSDYSYKTVTVKIKIIFMILIRVLVHAEAILNVVNNWISEEKEPRIKKRINVYMYVFCFRHDLYLLFLLKFISGVIPTIEYDFTTDIEIPRDSNAGL	not soluble
MDSLKGMAIFATVVDKGSMAAAAQSLGMTPSAVSQQIRKLESRAQVTLLHRTTRRLTLTEAGEAFYRSCAQMLAIAEEAERRLGEWRDAPVGELRLAAPVGFSGTLITQALKPLLENHRQLRLQLFFQDERIDLVAERIDLAIRVGNLADSSLVARHLGDWSSVLCAAPAYLRQRAPINRPEQLTEVDWISLNTSNHLNHLTLSGPGGEVCKLRLEPRVAANGMLAVRQFTLDGLGVSYQPLPEVRDALNDGRLQQLLPEWRIPGLGIYAVTPRREAQPAKVKVAIEALRRAFATDGDERWS	not soluble
MGSDKIHHHHHHMKELIRKLTEAFGPSGREEEVRSIILEELEGHIDGHRIDGLGNLIVWKGSGEKKVILDAHIDEIGVVVTNVDDKGFLTIEPVGGVSPYMLLGKRIRFENGTIGVVGMEGETTEERQENVRKLSFDKLFIDIGANSREEAQKMCPIGSFGVYDSGFVEVSGKYVSKAMDDRIGCAVIVEVFKRIKPAVTLYGVFSVQEEVGLVGASVAGYGVPADEAIAIDVTDSADTPKAIKRHAMRLSGGPALKVKDRASISSKRILENLIEIAEKFDIKYQMEVLTFGGTNAMGYQRTREGIPSATVSIPTRYVHSPSEMIAPDDVEATVDLLIRYLGA	soluble
MKLSAYHKARGGLVEWWNPKNHYDLVYKSRVFTDTYSKDTIAVTNADAVILGGTGYDLGENLPDAVEHTRPDAALYPQFSDTAYGFLSRGCPRNCGFCIVSGKEGRRSRKVADLSEFWDGQKEIKLLDANLLACPDHEALILQLAESRAWVDFSQGLDIRLITPDNVALLNRVRTRAVHFAWDNPDEDLTGYFRRFLELTAIKSDRKRRVYVLTNYGSTHEQDLYRVETLRGMGYDPYVMVYDRPAAPKITRQLQRWVNNKRIFYTVKNFADYIPNRTGGIT	not soluble

---

assay: soluble on expression in E. coli; label from the status in PepcDB or PDB records
READOUT_NAME: soluble on expression in E. coli

SEQ_TEXT	OBSERVED_MEASUREMENT
MAVIEAEGLWKIFGGDPERARTLAKEGMSKAEVKEETGSVIAVDDANFEVQEQEIFVVMGLSGSGKSTLLRCVNRLIEPTFGKVHVHDDEVTAFDEDRLRKLRRTKMSMVFQNFGLFPHRTVIGNVEYGLEVAGMDKEKRRGKARQSLELVGLDGYEDSQTSQLSGGMQQRVGLARALVNDPEILLMDEAFSALDPLIRADMQNELLELQEQWDPACTILFITHDLDEALKMGDRIAIMKDGRIAQIGTPTEILTEPADEYVRSFVENVDRTKIVPARTVMRALGDDETVAADGPSVSPHTPIAELLPALVDADGPLAVRDSGGTLQGVVSQDAVMEEVVQNADGARRRDARAGRTDEDPEAAVALEHHHHHH	soluble
GMSDEQHDSVWPPPGLDFSKPTIARVYDALLGGKDNFEADRALADYACKHIPGLKESAIENRKVLVRGVRFLAGEAGISQFLDLGSGLPTVQNTHEVAQSVNPDARVVYVDIDPMVLTHGRALLAKDPNTAVFTADVRDPEYILNHPDVRRMIDFSRPAAIMLVGMLHYLSPDVVDRVVGAYRDALAPGSYLFMTSLVDTGLPAQQKLARITRENLGEGWARTPEEIERQFGDFELVEPGVVYTALWRPDEPVDPDNLSPGEQLGMAGIGRKKA	soluble

---

assay: soluble on expression in E. coli; label from the status in PepcDB or PDB records

SEQ_TEXT	soluble on expression in E. coli
MSTDEERIYSIALTQIPGVGHIGAKRLVDGMGSATDVFRYRTELPDRLPGVNRAVVAALDSPQALKRAEQEYEFARNNRISCFTLADEDYPSRLRECDDAPVVLFFKGKANLNALHIINMVGTRNATDYGKHICVSFLQELQMLCPDVLVVSGLAYGIDINAHRSALSVELPTVGVLAHGLDRIYPSLHRKTAIDMLRQGGLLTEFLSGTNPDKHNFISRNRIVAGISDATIVVESAAKGGSLITADIAGSYHRDCFAFPGRVTDEYSKGCNQLIQDNKAVLLESASDFVKTMGWDSDLKSVKPETVQRNLFPDLSAEELRIVDILGKLGDLQINALMVQADIPINKISAILFELEMKGVIRVLAGGVYQLLR	not soluble
MKKVSPSYLKHQFLIAMPHMHDENFAQTLTYVVEHNANGAMGLVINRPQSLTLADVLEQLRPELPAPKRCQEIAIHAGGPVQTDRGFVLHPSGQTFQATVDLPGGISLSTSQDVLFSIADGYGPDQNVITLGYAGWDAGQLDAEMADNAWLTCSFDPAILFDVDSDQRLDAAARRLGINLALISTQAGHAAAALEHHHHHH	not soluble

---

experiment: soluble on expression in E. coli; label from the status in PepcDB or PDB records

SEQ_TEXT	soluble on expression in E. coli
MNQKYILSANNNSLIEEIHNTVQSIGYCIVRGLNLNHLDGSRRNKKLFDFLSQLGMLTNHKGDGFKSIFWDIKY	not soluble
MGHHHHHHSHMIGKCTHVVDCRETMGMGEGGGIAQRGTFAQCGSEVLAVAMSPGRRHITKPVCEITFALREANIMTSTIVLNAGAGVPQDAPSAGAGSLFGLTPAEVEQMKRHKLLVVHLGGVKNHITYKARLILRNVDRPCIIICEYPVDFEDFAKIGVRTRAVMPDEPKTKGTIVDIVSGVIRGETCPQEKLDEIIRKVKLALGGA	soluble
MGSDKIHHHHHHMHLELRHLRTIRAIHQAGGLARAADVLHMTQSALSHQVKGLEDQAGIELFVRRSKPLKLSAAGIRLLRLAERILPEIDALEDEFRALRSGRTGRLHIAIECHACFEWLFPVLELFRHAWPEIDVDIRAGLAFEALPALMREEVDLVISSDPVTVEGMVFNPLFDYHPTFVAAASNPLAAREFISAEDFRDQMLITYPVSRDRLDVFTEVLTPAKVEPRGTRQVELTAVILMLVASNRGVSVLPDWVLRDVRSHADYVTRPLGPKTVTKRLYAATRTEDATKPFMAHFLRLGRSEPVKLQRA	not soluble
SSGLVPRGSHMSEMIYGIHAVQALLERAPERFQEVFILKGREDKRLLPLIHALESQGVVIQLANRQYLDEKSDGAVHQGIIARVKPGRQYQENDLPDLIASLDQPFLLILDGVTDPHNLGACLRSADAAGVHAVIVPKDRSAQLNATAKKVACGAAESVPLIRVTNLARTMRMLQEENIWIVGTAGEADHTLYQSKMTGRLALVMGAEGEGMRRLTREHCDELISIPMAGSVSSLNVSVATGICLFEAVRQRS	soluble
MGSDKIHHHHHHMDIIEELRAYREKDIPYSRVLSSMCTVPHPVAVEAHRMFIETNLGDPGIFRGTVELEAKLMRLIGDILHCETPAGYICSGGTEANIQGIRAARNVQKKENPNIVIPKTAHFSFEKIGDILGVKIKRAGVDEEYKVDVGQVEDLMDENTVAIVGIAGTTELGQIDPIVELSKLAEERQVELHVDAAFGGLVIPFMDNPYPFDFQNRGVSSITIDPHKMGMATIPAGGIIFRNESYLRALEVETPYLTSKTQFTLTGTRPGTGVASAYAVLKSLGFEGMREVVKNCLKNTRILVEEMRDLGFEPVIEPVMNVVSFRTDEAERIKEELYRMRWVISTIREPKAIRFVVMPHVTEEVIKNFISDFRKVLRR	not soluble
MGSDKIHHHHHHMILQVQPAKLIKRYKRFLADIELNCGEETTIHCANTGAMKGCAEPDDTVWYTTSTNTKRKYPFSWEITQSQDDHFICVNTLRANQLVEEALHLDLIKELSGFNELKREVKYGNENSRVDFLATYNNAPDTYIEVKSVTLLESGHGYFPDAVTTRGQKHLRELMDMVAQGHKAVLLFAVLHSGINDISAASHVDPIYAKLLKEARLAGVEIIAYKAGFSLQLGELDVKLVEKIPFIER	not soluble
GSHMLETEDVVRARDAHLRSILDTVPDATVVSATDGTIVSFNAAAVRQFGYAEEEVIGQNLRILMPEPYRHEHDGYLQRYMATGEKRIIGIDRVVSGQRKDGSTFPMKLAVGEMRSGGERFFTGFIRDLT	soluble
MSLPREKVVRVWDEREVVYSPKRWRILWEKREKALKIMELLKDFDPHVYGSVARGDVRRDSDIDIVIPYRVPSYLIELALGDLIQRRRIVMATPWHLIKGHIEIDEETTVTFFLVDPTDRELEFYKWGGMLDLWGVKTKQRVPGVNKKLILIIPTDKGHIEREVVGREAEVAKILGVSVDIVEERVKVLTRRDRIGRTGIYLDEEVPDWKSFEEFLKELADRDPNIRRRVRESLEGHHHHHH	not soluble
GSHMSLDNKPIMRVASIDIGSYSVRLTIAQIKDGKLSIILERGRITSLGTKVKETGRLQEDRIEETIQVLKEYKKLIDEFKVERVKAVATEAIRRAKNAEEFLERVKREVGLVVEVITPEQEGRYAYLAVAYSLKPEGEVCVVDQGGGSTEYVFGKGYKVREVISLPIGIVNLTETFFKQDPPTEEEVKRFFEFLEKELSKVKKPVDTIVGLGGTITTLAALEYNVYPYDPQKVHGKVLTYGQIKKWFDTFKEIPSEERSKRFRQVEDRRAKVILAGIGIFLKTLEIFEKDCLIVSDWGLREGVLVSEVLKENHS	soluble
MLELNFSQTLGTHCLTLNETLPASGITAIFGVSGAGKTSLINAISGLTRPQKGRIALNGRVLHDAENGICLTPEKRRIGYVFQDARLFPHYKVRGNLRYGMAKSMTGQFDKLVSLLGIEALLDRLPGSLSGGEKQRVAIGRALLTAPELLLLDEPLASLDIPRKRELLPYLQRLAREINIPMLYVSHSLDEILHLADKVMVLEDGQVKAFGPLEEVWGSSVMHPWLPKEQQSSILKVSVLEHHPHYAMTALALGDQHLWVNKLNQPLQSTLRIRIQASDVSLVLQPPQQTSIRNVLRAKVANCYDDNGQVEVQLEIGGRTLWARISPWARDELNIKPGLWLYAQVKSVSITA	not soluble
QTLLNVTLESESMAVDEVVVSARRLNRNDLGISDKEMVSATQKVDMEKLIAAAPVVSIEEALQGQLGGVDIVLGGDPGSRSAIRIRGTSTLNASSDPLIVIDGVPYPTEISDDFNFSTATEEDLGALLNISPNDIASVEVLKDASATAIWGTQGANGVLVIKTKQGT	not soluble
SVTSSQVMLMPAHDSAKPTGFGIMVTSLDLLRDHQKVIHTLWFIDDVVARELGGFDGFCRRERVLLLFVDSTNTTLSFTRNDMTCVPRQGGADSDHWLFKRHLALLLPLSFAQVYEGFISFYEEEDKHISWDIKSCSSSSHQ	not soluble
